// reported %Inh per item
- Tested on: CDC2L2
- conditionContext: concentration: 1 μM, replicates: in singlicate; n = 1;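 note: KINOMEscan kinase panel screen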
A bare number is not enough; add the unit after it.

Prompt line: Record request: %Inh value, item `CN1c2ccc(NCc3ccc(F)cc3)cc2-c2c(cnn2C)S1(=O)=O`
Response line: 0%

Prompt line: I am curious: what %Inh value has been reported for `Cc1ccc(C(=O)NCC(N)=O)cc1-n1c(C)cc(OCc2ccc(F)cc2F)c(Br)c1=O` ?
Response line: 20%

Prompt line: Bench note: what %Inh did NCC(NC(=O)c1cc(-c2cn[nH]c2)c(-c2ccnc3[nH]ccc23)s1)c1ccccc1.O=C(O)C(F)(F)F.O=C(O)C(F)(F)F (stereo not drawn) show?
Response line: 11%

###

- System: CDKL3
- conditionContext: concentration: 1 μM, replicates: in singlicate; n = 1
property: %Inh (%)
Report as a plain number; the unit % is understood.

In the examples that follow, each entry is paired with its recorded %Inh.
[
  {
    "compound": "Cl.Nc1ncnc2occ(-c3ccc(NC(=O)Nc4cc(C(F)(F)F)ccc4F)cc3)c12 [SB-707548]",
    "property": "%Inh",
    "unitLabel": "%",
    "numericReadout": 95
  },
  {
    "compound": "O=C1NC(=O)C(N2CCc3ccccc32)=C1c1cccc(Cl)c1 [SB-408010]",
    "property": "%Inh",
    "unitLabel": "%",
    "numericReadout": 0
  },
  {
    "compound": "Fc1ccc(-c2ncn(CCCN3CCOCC3)c2-c2cccnc2)cc1 [SB-211743]",
    "property": "%Inh",
    "unitLabel": "%",
    "numericReadout": 0
  },
  {
    "compound": "Cc1cccc(Cn2ccn3c(=O)cc(N4CCOCC4)nc23)c1 [GSK2297542]",
    "property": "%Inh",
    "unitLabel": "%",
    "numericReadout": 0
  },
  {
    "compound": "Nc1nc(-c2ccc3c(N)n[nH]c3c2)cc(N2CCCC2)n1 [GSK2227430]",
    "property": "%Inh",
    "unitLabel": "%",
    "numericReadout": 0
  },
  {
    "compound": "CSc1ccc(-c2cc3ncnc(SCC(=O)O)c3s2)cc1",
    "property": "%Inh",
    "unitLabel": "%",
    "numericReadout": 0
  },
  {
    "compound": "Cc1nnc(-c2ccc(C)c(-c3ccc(C(=O)Nc4ccc(NS(C)(=O)=O)cc4)cc3)c2)o1 [GW702865]",
    "property": "%Inh",
    "unitLabel": "%",
    "numericReadout": 0
  },
  {
    "compound": "CCc1ccnc(/C=C/c2n[nH]c3cc(Sc4ccccc4C(=O)NC)ccc23)c1",
    "property": "%Inh",
    "unitLabel": "%",
    "numericReadout": 2
  }
]

Prompt line: Find the measured %Inh: item Fc1ccc(-c2nn3c(OCC(F)(F)F)cccc3c2-c2ccncc2)cc1 [GW514784] , target or system CDKL3.
Response line: 0

Prompt line: Lookup: %Inh / CDKL3 / `CN1c2ccc(CNc3ccc(F)cc3)cc2-c2c(cnn2C)S1(=O)=O`
Response line: 0

###

- System: MEK4
- Construct: gene MAP2K4
- conditionContext: concentration: 1 μM, replicates: in singlicate; n = 1
Define the label as t when %Inh is strictly less than 20% and as f in all remaining cases.

[
  {
    "compound": "CCc1nc(-c2cccc(C)c2)c(-c2ccnc(NCc3ccccc3)c2)s1",
    "categoryLabel": "t"
  },
  {
    "compound": "COc1ccc(COc2cc(-n3cnc4ccccc43)sc2C(N)=O)cc1",
    "categoryLabel": "t"
  },
  {
    "compound": "CSc1ccc(-c2cc3ncnc(SCC(=O)O)c3s2)cc1",
    "categoryLabel": "t"
  },
  {
    "compound": "Fc1ccc(-c2ncn(CCCN3CCOCC3)c2-c2cccnc2)cc1",
    "categoryLabel": "t"
  },
  {
    "compound": "O=c1cc(N2CCOCC2)nc2n(Cc3cccc(F)c3)ccn12",
    "categoryLabel": "t"
  },
  {
    "compound": "CNc1ncnc2[nH]ncc12",
    "categoryLabel": "t"
  },
  {
    "compound": "Cc1ccc(C(=O)NCC(N)=O)cc1-n1c(C)cc(OCc2ccc(F)cc2F)c(Br)c1=O",
    "categoryLabel": "t"
  },
  {
    "compound": "NCC(NC(=O)c1cc(-c2cn[nH]c2)c(-c2ccnc3[nH]ccc23)s1)c1ccccc1.O=C(O)C(F)(F)F.O=C(O)C(F)(F)F (stereo not shown)",
    "categoryLabel": "f"
  }
]

Now for another entry.
Prompt line: %Inh strictly < 20% for this compound? `O=C1NC(=O)C(N2CCc3ccccc32)=C1c1cccc(Cl)c1`
Response line: t
